- target or test system: T1, RSV prefusion F (preF), subtype B (respiratory syncytial virus subtype B)
- T1 construct: also called Prefusion subtype B
- experiment notes: BLI, IgG
experimental readout: Kd (nM)
Please give a number only; it is taken to be in nM.

Example results:
- ADI-14352 (antibody, V domains shown, full-length IgG; also called Ab 20) VH: EVQLLETGPGLVKPSQTLSLICAVSGGSISSGGYSWSWIRQPPGKGLEWVGYISYSGSTYYNPSLKSRVTISVDTSKNQFSLKLNSVTAADTAVYFCARVDGIYSSGMRFDYWGQGTLVTVSS VL: DIQLTQSPGTLSLSPGERATLSCRASQSVSSYYLAWYQQKPGQAPRLLIYGTSSRATGIPDRFSGSGSGTDFTLTISRLEPEDFAVYYCQQYGRSPLFGQGTRLEIK: 5.54
- ADI-14384 (antibody, V domains shown, full-length IgG; also called Ab 52) VH: QVQLQESGSGLVKPSQTLSLTCTVSGGSISSVGYSWSWIRQPPGKGLEWIGYIYHSGSPYYSPSLNSRVTISVDRSKNQFSLKLSSVTAADTAVYFCARVFFGGGGAFDIWGQGTTVTVSS VL: QPGLTQPPSVSVAPGQTARITCGGNNIGSKSVQWYQQKPGQAPVLVMYYDSDRPSGIPDRFSGSSSGNTATLTITRVEAGDEADYSCQVWDSVNVHPVIFGGGTKLTVL: 4.78
- ADI-25497 (antibody, V domains shown, full-length IgG) VH: EVQLLESGGGLVQPGGSLRLSCAASGFTFSSYWMSWVRQAPGKGLEWVANIKQDGSEKYYVDSVKGRFTISRDNAKNSLYLQMNSLRAEDTAVYYCARDGLLQYDFWSGYYDYWGQGTLVTVSS VL: EIVLTQSPSSLSASVGDRVTITCRASQGISSWLAWYQQKPEKAPKSLIYAASSLQSGVPSRFSGSGSGTDFTLTISSLQPEDFATYYCQQYNSYPFTFGPGTKVDIK: 14.1
- ADI-25549 (antibody, V domains shown, full-length IgG) VH: QVQLVQSGGGLVKPGGSLRLSCAASGFTFSSYSMNWVRQAPGKGLEWVSSISSSSSYIYYADSVKGRFTISRDNAKNSLYLQMNSLRAEDTAVYYCARVSSGWYGGGAYYFDYWGQGTLVTVSS VL: QSVVTQPPSVSGAPGQRVTISCTGSSSNIGAGYDVHWYQQLPGTAPKLLIYGNSNRPSGVPDRFSGSKSGTSASLAITGLQAEDEADYYCQSYDSSLSALYVFGTGTKVTVL: 28.8

As a next step, examine the binder that follows.
# Kd lookup, item ADI-25495 (antibody, V domains shown, full-length IgG) VH: QVQLVQSGGGLVKPGGSLRLSCAASGFTFSSYSMNWVRQAPGKGLEWVSSISSSSSYIYYADSVKGRFTISRDNAKNSLYLQMNSLRAEDTAVYYCARGYCTNGVCYLDAFDIWGQGTTVTVSS VL: QSVLIQPASVSGSPGQSITISCTGTSSDVGGYNYVSWYQQHPGKAPKLMIYDVSNRPSGVSNRFSGSKSGNTASLTISGLQAEDEADYYCSSYTSSSTPVVFGGGTKVTVL
6.41

Data credit: patent US20260258115A1
